- Tested on: A498 renal
- method: NCI tumour cell line growth inhibition, 48 h
Overview of reported TGI across a group of compounds:

Query: What does the record list as TGI for CCCc1onc(CCC(=O)N(Cc2ccccc2)Cc2ccccc2)c1CC ?
Result: > 100 µM

Query: What does the record list as TGI for C=CC1(CC)/C(=N\O)C(CC)(CC)C(=O)N1O (stereo not drawn) ?
Result: > 100 µM

Query: What does the record list as TGI for O=C1CCCCCCCCCCC(=O)N2CCOCCOCCN1Cc1cccc(n1)C2 ?
Result: > 100 µM

---

- System: NCI/ADR-RES ovarian
- method: NCI tumour cell line growth inhibition, 48 h
Overview of reported TGI across a group of molecules:

COc1cc(OC)cc(-n2c(N)c(C#N)c3ccc([N+](=O)[O-])cc3c2=O)c1; > 100 µM
Cn1c(=O)[nH]c2nccnc2c1=O; > 10 µM
CC(=O)NCCc1c(-c2[nH]c3ccccc3c2CCNC(C)=O)[nH]c2ccccc12; > 100 µM
C(#Cc1cnccn1)/C=C\C#Cc1cnccn1; 44.3 µM
Cc1ccc2nc(-c3ccc(N)c(Br)c3)sc2c1; > 100 µM

Query: What does the record list as TGI for CCCCc1ccc(Nc2cc(=O)n(C)c(=O)[nH]2)cc1 ?
Result: > 100 µM

Query: What does the record list as TGI for CCOC(=O)[C@H]1O[C@@H]1C(=O)N[C@@H](CC(C)C)C(=O)NCCc1ccc(O)cc1 ?
Result: > 100 µM

Query: What does the record list as TGI for Nc1nc2c(c3ncccc13)C(c1cccc(Br)c1)Cc1ncccc1-2 (stereo unspecified) ?
Result: 15.1 µM

Query: What does the record list as TGI for CCOC(=O)N1C/C(=C/c2ccc(F)cc2)C(=O)/C(=C/c2ccc(F)cc2)C1 ?
Result: 21.1 µM

Query: What does the record list as TGI for C[N+](C)(CCNC(=O)c1cccc2cc3ccccc3nc12)Cc1ccc([N+](=O)[O-])cc1 ?
Result: > 100 µM

Query: What does the record list as TGI for CCOc1nc(-c2ccccc2)cc2c(O)c(C(=O)N/N=C/c3ccc(O)cc3O)[nH]c(=O)c12 ?
Result: > 31.3 µM

Query: What does the record list as TGI for CC(C)(C)C(=O)N(C(=S)OCc1ccccn1)c1ccccc1 ?
Result: 91.8 µM
